Source listed as paper PMC12040169.

# experimental details: in vitro
# details: human, hela cells, % viability
experimental endpoint: viability at 28.5 h, 10 µM (%)
Give bare numbers, in %.

1. CC(C)(C)c1ccc(OCC(=O)Nn2cnnc2)cc1 [CBK027576] | 90.3
2. O=C1CSC(c2ccc(F)cc2Cl)c2c[nH]nc2N1 (stereo not drawn) [CBK287935] | 91.4

Okay, now this compound:
The measured viability at 28.5 h, 10 µM associated with Cc1ccc(S(=O)(=O)Nc2nnc(SCC(=O)Nc3ccc4c(c3)OCO4)s2)cc1 [CBK026675] reads 100

====

Give measured viability at 28.5 h, 10 µM for each item. Keep answers brief.
# experimental details: in vitro
# details: human, hela cells, % viability
Give bare numbers, in %.

1. Cc1cccnc1CN1CCN(C(=O)NCCSc2nncn2C)CC1 | 89.9

State recorded viability at 28.5 h, 10 µM for all listed compounds.
1. O=C(Nc1ccc(S(=O)(=O)NCC2CCCO2)cc1)c1cc(-c2ccccc2)nc2ccccc12 (stereo not drawn)
2. Cc1cc(C[C@@H]2CCC[C@H]2NCc2ccncc2)on1
3. SC1=NC2(CCCC2)NN1c1ccc(Cl)cc1
4. Oc1ccccc1/C=N/CC(O)C/N=C/c1ccccc1O
5. COc1cc(C(CC(=O)O)C(=O)O)c([N+](=O)[O-])cc1OC (stereo not drawn)

84.3
98.6
83.2
103
96.9

====

# experimental details: in vitro
# details: human, hela cells, % viability
experimental endpoint: viability at 28.5 h, 10 µM (%)
Give bare numbers, in %.

Worked examples, 10 molecules total:
1) Cc1nn(Cc2cccc(C(=O)NCc3ccccn3)c2)c(C)c1Cl | 97.7
2) COc1cccc2c1CCN=C2C[C@H]1CN(C(=O)C2CC2)CC[C@H]1CC(=O)O | 94.5
3) O=C(c1ccco1)N1CCN(C2C3CCCC2CNC3)CC1 (centres unmarked) | 94.4
4) O=C(Nc1ccc(S(=O)(=O)N2CCCCC2)cc1)c1nc(SCc2ccccc2)ncc1Cl | 107
5) CC(=O)NC(Cc1c[nH]c2ccccc12)C(=O)N(C)Cc1cnn(C)c1 (centres unmarked) | 84.3
6) CC1CCN(CCNC(=O)CCc2nc3ccc(Cl)cc3[nH]2)CC1 | 88.7
7) Cc1c(NCc2ccc3c(c2)n(C)c(=O)n3C)cccc1C(=O)O | 98.6
8) CC(=O)Nc1ccc(S(=O)(=O)NC2(C(F)(F)F)C(=O)Nc3c2c(=O)[nH]c(=S)n3C2CCCCC2)cc1 (centres unmarked) | 97.2
9) Cc1cc(S)n2nc(C)c(-c3ccccc3)c2n1 | 99
10) CCn1c(C2CCN(C(=O)c3cc(C(F)(F)F)n[nH]3)CC2)nn(C)c1=O | 88.9

State recorded viability at 28.5 h, 10 µM for all listed molecules.
1. CCc1nnc(NS(=O)(=O)c2ccc(Nc3ccc([N+](=O)[O-])c4nonc34)cc2)s1
2. O=C(CN1CCOCC1)Nc1sc2c(c1C(=O)Nc1ccc(Cl)cc1)CCC2
3. Cc1cc2ncc3c(n2n1)NC(c1ccc(Cl)cc1Cl)NC3=O (centres unmarked)
4. O=C(O)C1CCCN1S(=O)(=O)c1ccc2[nH]c(=O)c(=O)[nH]c2c1 (centres unmarked)
5. CCn1nc(C)c(-c2cncn2CC(C)n2nc(C)cc2C)c1C (centres unmarked)
6. CN(C)CCN(C)C(=O)c1ccc(-c2cccc(C(=O)NCCO)c2)nc1N1CCOCC1

[92.3, 102, 90.8, 88.9, 109, 92.5]

State recorded viability at 28.5 h, 10 µM for all listed molecules.
1. CC1(C)NC(=O)N(CCCC(=O)NCc2coc(-c3cccs3)n2)C1=O
2. CN1CCN(C(c2ccc(O)cc2)c2nnnn2Cc2ccccc2)CC1 (centres unmarked)
3. COC(=O)c1ccccc1NC(=O)CSc1nc(C)cc(C(F)(F)F)n1
4. COC(=O)CCn1c(-c2ccncc2)cc2cccnc21
5. CCc1nc2ccc(C(=O)NC3=NN(c4ccccc4)C(=O)C3)cn2c1N(C)Cc1cccs1
6. O=[N+]([O-])c1ccc(N2CCN(S(=O)(=O)c3ccc(Cl)cc3)CC2)cc1NCc1cccnc1

[105, 94.8, 89.1, 65.2, 93, 123]

====

# experimental details: in vitro
# details: human, hela cells, % viability
experimental endpoint: viability at 28.5 h, 10 µM (%)
Give bare numbers, in %.

Worked examples, 10 compounds total:
1) CCCCOc1ccc(OC(=O)C2CCN(CCCC)CC2)cc1 | 112
2) COCCn1c(SC(C)C(=O)N2CCOCC2)nc2cc(Cl)ccc21 (centres unmarked) | 94.8
3) Cc1cccc2cc(CN(Cc3ccco3)C(=O)C3CCCCC3)c(O)nc12 | 102
4) COc1ncccc1CNC(=O)Cn1ccc(=O)[nH]c1=O | 99.9
5) CC(=O)NC(CC(=O)N1CCc2sccc2C1c1ccccc1)c1ccc(F)cc1 (centres unmarked) | 112
6) O=C(NCc1cccs1)C1(c2ccccc2)CCCC1 | 103
7) CC(C)(C)c1csc(NC(=O)C2CCCCC2)n1 | 98.1
8) Cc1cc(C(=O)NCCn2ccnc2C)c2ccccc2n1 | 100
9) CCC1CNCCN1c1nccnc1OCCOc1cccnc1 (centres unmarked) [CBK001559F] | 121
10) Cn1c2ccccc2c2nnc(SCCCC(=O)c3ccc4c(c3)OCCO4)nc21 | 97.5

State recorded viability at 28.5 h, 10 µM for all listed compounds.
1. Cc1ccc(-n2c(SCC(=O)Nc3ccccc3C#N)nnc2-c2cc(Br)ccc2O)c(C)c1
2. COC(=O)c1ccccc1NC(=O)CSc1nnc(-c2sc(N)nc2C)o1
3. CC1CCc2c(sc(NC(=O)c3ccncc3)c2C(N)=O)C1 (centres unmarked)
4. CCc1nc2ccc(C(=O)NCCN(C)C)cn2c1N(CC)CC(=O)N(C)C
5. Oc1cccc2ccc(/C=N/N=C/c3ccc4cccc(O)c4n3)nc12
6. COc1ccccc1N1CCN(C(=O)C2CC2C)CC1 (centres unmarked)

1. 94.1
2. 100
3. 87.8
4. 89.6
5. 89.3
6. 108

State recorded viability at 28.5 h, 10 µM for all listed compounds.
1. c1ccc2c(c1)CCC[C@H]2Oc1cncc(N2CCNCC2)n1 [CBK172388G]
2. O=c1c2c(-c3ccc(F)cc3)csc2ncn1CC1(CO)CCOCC1
3. COc1ccccc1-c1cc2c(=O)n(C)c(-c3ccc(CNC(C)C)cc3)cc2o1 [CBK051699C]
4. O=C(NCCN1CCC(O)(c2ccc(F)cc2)CC1)C1CCCCC1
5. Cc1c(OCCC2CCCCN2C)ccc2c(=O)cc(N3CCOCC3)oc12 (centres unmarked)

1: 90.7; 2: 88; 3: 84.5; 4: 106; 5: 91.8

State recorded viability at 28.5 h, 10 µM for all listed compounds.
1. CC(C)(C)c1ccc(C(=O)CSCC(=O)Nc2ccc3ccccc3c2)cc1
2. CC(=O)N[C@H]1[C@H](Oc2ccc3ccccc3c2)O[C@@H]2COC(C)(C)O[C@H]2[C@@H]1O
3. Nc1n[nH]c2nc(-c3ccccc3)c3c(c12)CCC3
4. O[C@H]1CCC[C@@H]1NCc1ccc(Cl)c(Cl)c1

1. 85.2
2. 87
3. 88.8
4. 87

State recorded viability at 28.5 h, 10 µM for all listed compounds.
1. Cc1sc2nc(N)c(C(=O)NC(C)C)cc2c1C
2. CCc1ccc(S(=O)(=O)Nc2ccc(O)c(C(=O)O)c2)cc1
3. CCOC(=O)N1CCN(CC(=O)Nc2cc3c(cc2C(C)=O)OCO3)CC1
4. Cc1cc(NC(=O)CN2CCN(Cc3ccc4c(c3)CCO4)CC2)on1
5. COc1ccc(/N=C2\NC(=O)/C(=C\C=C\c3ccccc3)S2)cc1
6. O=C(NCc1cccc(C(F)(F)F)c1)N1CCN(CCc2ccccc2)CC1
7. Fc1ccc(OCCNC2CCc3[nH]c4ccccc4c3C2)cc1 (centres unmarked)
8. CC1CNCCN1C(=O)c1cnn(-c2cccc(Cl)c2)c1 (centres unmarked)

[115, 90.7, 99.8, 92.5, 94.2, 90.1, 83.7, 94.1]

State recorded viability at 28.5 h, 10 µM for all listed compounds.
1. CN(Cc1ccc(Br)cc1Cl)C(=O)c1cn[nH]c1C1CCNC1 (centres unmarked)
2. CNC(=O)c1cc(-c2cccc(Cl)c2)oc1CC(=O)c1ccc(CN2CCCC2)cc1

1: 93.5; 2: 95.3

====

# experimental details: in vitro
# details: human, hela cells, % viability
experimental endpoint: viability at 28.5 h, 10 µM (%)
One number for each entry, in %.

Worked examples, 3 compounds total:
1) Cn1c(C(=O)NCCc2cnccn2)cc2cc(Cl)ccc21 | 90.9
2) COc1ccc(C2CCN(Cc3ccncc3)CC2)cc1 | 95.8
3) Cc1ccnc(NCn2nnc3ccccc32)c1 | 110

The measured viability at 28.5 h, 10 µM associated with COc1ccc(C2=NN(c3ccccc3)C(c3cn(-c4ccccc4)nc3-c3ccccc3)C2)cc1 (stereo not shown) reads 88.9
